# Tested on: human polymorphonuclear neutrophils (hPMN)
# Assay Name: Ca2+ flux assay in human neutrophils
# Assay type: cell-based
# Test Settings: Homo sapiens, Polymorphonuclear neutrophil, read-out: hPMN EC50
pEC50: −log10 of the molar value.
Assay Metric: pEC50

> print(dat)
                                   molecule  observed
1  COc1ccc(Nc2c(-c3ccn(C)n3)c(C)nn(CC(=O)Nc3ccc(Br)cc3)c2=O)cc1 [Compound 27b]      6.52
2  CCc1c(C)nn(CC(=O)Nc2ccc(Br)cc2)c(=O)c1Nc1cccc(OC)c1 [Compound 13a]      6.47
3  CCC(=O)c1c(C)nn(CC(=O)Nc2ccc(Br)cc2)c(=O)c1Nc1cccc(OC)c1      5.26
